Could you please report measured TGI for the items listed next?
# Test system: PC-3 prostate
# test: NCI tumour cell line growth inhibition, 48 h

Lab note: measured TGI of "O=c1oc2ccc(-c3ccc(F)cc3F)cc2c(=O)n1-c1ccc(Cl)c(C(F)(F)F)c1" was 10.9 µM

Lab note: measured TGI of CC1(C)CC[C@]2(C(=O)Nc3ccc(Br)cc3)CC[C@]3(C)C(=CCC4[C@@]5(C)C[C@@H](O)[C@H](O)[C@@](C)(CO)C5CC[C@]43C)C2C1 (some centres undefined) was 40.8 µM

Lab note: measured TGI of "COc1cc2c(cc1OC)CN(CCCCOc1cc(O)c3c(=O)cc(-c4ccccc4)oc3c1)CC2" was > 100 µM

Lab note: measured TGI of O=C(c1ccc(O)cc1)C1[C@H](c2ccc(Cl)cc2)[C@@H](c2ccccc2)NC12C(=O)Nc1ccc(Br)cc12 (some centres undefined) was 25.9 µM

---

# Tested on: MDA-MB-468 breast
# test: NCI tumour cell line growth inhibition, 48 h; in the data active = GI50 below about 0.43 µM; inactive = the rest
Give your call using only these classes: active, inactive

Dear all, I need the recorded test outcome for "COc1cc2c(=O)n(CCN(C)C)c3c4cc5c(cc4ccc3c2cc1OC)OCO5" , thank you. active

Dear all, I need the recorded test outcome for "C=C1C(=O)O[C@H]2[C@H]1CC/C(COC(=O)NCCc1c[nH]c3ccc(Cl)cc13)=C\CC[C@@]1(C)O[C@@H]21" , thank you. inactive

Dear all, I need the recorded test outcome for "Cc1cc(Nc2cc(N3CCN(C)CC3)nc(Sc3ccc(NC(=O)C4CC4)cc3)n2)n[nH]1" , thank you. active

Dear all, I need the recorded test outcome for "CCS(=O)(=O)c1ccc(OC)c(Nc2ncc(-c3ccccc3Cl)o2)c1" , thank you. inactive

Dear all, I need the recorded test outcome for "COc1cc2c(cc1OC)CN(CCCCOc1cc(O)c3c(=O)cc(-c4ccccc4)oc3c1)CC2" , thank you. inactive

Dear all, I need the recorded test outcome for "CCOC(=O)c1cnn2c3ccccc3n(S(=O)(=O)c3ccc(OC)cc3)c12" , thank you. active

Dear all, I need the recorded test outcome for "O=S(=O)(Nc1ccc(F)c(Cl)c1)c1ccc(-c2cnc(C3CC3)o2)cc1" , thank you. active

Dear all, I need the recorded test outcome for "NC(=Nc1ccc(N)cc1)C(N)=Nc1ccc(N)cc1" , thank you. inactive

Dear all, I need the recorded test outcome for "CC(=O)c1cc(C(=O)c2ccc3c(c2)Sc2ccccc2N3)c2c(C)cccn12" , thank you. active

Dear all, I need the recorded test outcome for "COc1ccccc1NS(=O)(=O)c1ccc2oc(SC(C)C)nc2c1" , thank you. inactive

---

# Tested on: MDA-MB-468 breast
# test: NCI tumour cell line growth inhibition, 48 h
Could you please report measured TGI for the items listed next?
Write down the numeric answer in µM and omit the unit.

Lab note: measured TGI of "C=C1C(=O)O[C@H]2[C@H]1CC/C(COC(=O)NCCc1c[nH]c3ccc(Cl)cc13)=C\CC[C@@]1(C)O[C@@H]21" was 3.31

Lab note: measured TGI of "O=C(C[P+](c1ccccc1)(c1ccccc1)c1ccccc1)C[P+](c1ccccc1)(c1ccccc1)c1ccccc1" was 0.508

Lab note: measured TGI of "CCOC(=O)/C=C/C(=O)[C@H](CC(C)C)NC(=O)[C@H](Cc1ccccc1)NC(=O)OCc1ccccc1" was 5.07

Lab note: measured TGI of "Cn1cc(-c2nn3cc(-c4ccncc4)nc3s2)c2cc(Cl)ccc21" was 7.84

Where these numbers come from: PubChem BioAssay (NCI)
